System: U-937
Experiment: Cytotoxicity activity against human U-937 cells assessed as reduction in cell viability measured after 24 hrs by CCK-8 assay
Type: functional, cell-based
Conditions: Homo sapiens, U-937, 24 h
Provide the recorded IC50 for the entries that follow.
All answers are understood in pM, so give the number only.

// recorded IC50 for CCC(=O)OCN(C(=O)[C@@H](NC(=O)[C@H]1CCCCN1C)[C@@H](C)CC)[C@H](C[C@@H](OC(C)=O)c1nc(C(=O)N[C@@H](Cc2ccc(O)cc2)C[C@H](C)C(=O)O)cs1)C(C)C : 5

IC50 in this record for CC[C@H](C)[C@H](NC(=O)[C@H]1CCCCN1C)C(=O)N(COC(C)=O)[C@H](C[C@@H](OC(C)=O)c1nc(C(=O)N[C@@H](Cc2ccc(O)cc2)C[C@H](C)C(=O)O)cs1)C(C)C : 5

The reported value for CCCC(=O)OCN(C(=O)[C@@H](NC(=O)[C@H]1CCCCN1C)[C@@H](C)CC)[C@H](C[C@@H](OC(C)=O)c1nc(C(=O)N[C@@H](Cc2ccc(O)cc2)C[C@H](C)C(=O)O)cs1)C(C)C [TUBULYSIN B] in terms of IC50 is 5
